Parameter 'readout' = log10(IC50); parameter 'system' = UniProtKB P0DTD1.
Transform log10 | Measure IC50 | Unit µM

# example entries with known answers
compound=O=C(Cc1cc(Cl)cc(N2CCN(c3ncccn3)CC2)c1)Nc1cncc2ccccc12 assaymetric=log10(IC50) numericreadout=0.40
compound=Cc1nn(-c2cc(Cl)cc(CC(=O)Nc3cncc4ccccc34)c2)c(N)c1Br assaymetric=log10(IC50) numericreadout=0.24
compound="CNC(=O)CN1CC(C)(C(=O)Nc2cncc3cccc(Cl)c23)c2cc(Cl)ccc2S1(=O)=O (stereo not given)" assaymetric=log10(IC50) numericreadout=0.06
compound="O=C(Oc1cncc2ccccc12)C1CCOc2ccc(Cl)cc21 (stereo not given)" assaymetric=log10(IC50) numericreadout=-0.28

I would be grateful if you could provide log10(IC50) for each of the following entries.
1. O=C(NCCc1cccc(F)c1)C(c1cccnc1)N(C(=O)c1cocn1)c1ccc(N2CCCC2=O)cc1 (stereo not given)
2. O=C(C1CCOc2cc(Cl)ccc21)N(Cc1c[nH]c(=O)[nH]c1=O)c1cncc2ccccc12 (stereo not given)
3. COc1ccc2c(c1)CN(C(=O)CCl)C(c1ccccc1)C2 (stereo not given)

(A)
1. 1.88
2. 0.85
3. 0.57

----------
Parameter 'readout' = pIC50; parameter 'system' = SARS-CoV-2 Main Protease (SARS-CoV-2) (UniProt P0DTD1).
Numbers only, as −log10 of the molar value.

compound="Cc1nocc1C(=O)N1Cc2ccc(Cl)cc2C(C(=O)Nc2cncc3ccccc23)C1 (stereo unspecified)" assaymetric=pIC50 numericreadout=6.77
compound=O=C(Cc1cc(Cl)cc(Nc2cc(Cl)ccc2OC(F)(F)F)c1)Nc1cncc2ccccc12 assaymetric=pIC50 numericreadout=5.67

I would be grateful if you could provide pIC50 for each of the following entries.
1. O=C(Cc1cc(Cl)cc(NCc2cc(Cl)cc(Cl)c2)c1)Nc1cncc2ccccc12
2. O=C(CCl)N1CCC(c2nc(-c3cccnc3)nc3ccccc23)CC1
3. Cn1nncc1CC(=O)NC(c1ccccc1)c1nc2ccccc2n1C (stereo unspecified)

(A)
[5.76, 4.74, 4.45]

I would be grateful if you could provide pIC50 for each of the following entries.
1. O=C(Nc1cncc2ccccc12)C(NC(=O)[C@@H]1CCCO1)c1cccc(Cl)c1 (stereo in doubt)
2. O=C(c1cc(=O)[nH]c2ccccc12)N1CCN(Cc2cccc(Cl)c2)CC1
3. O=C(Cc1cc(Cl)cc(Nc2ccc(F)cc2C(F)(F)F)c1)Nc1cncc2ccccc12

(A)
[5.64, 5.34, 5.81]

I would be grateful if you could provide pIC50 for each of the following entries.
1. CC(C)(C)c1ccc(N(C(=O)c2cocn2)C(C(=O)NC2CCOCC2)c2cccnc2)cc1 (stereo unspecified)
2. CC(=O)Nc1ccc2c(NC(=O)Cc3cccc(Cl)c3)cncc2c1
3. Cc1ccncc1NC(=O)Cc1cc(C#N)cc(OC2CC(=O)N2)c1 (stereo unspecified)
4. Cc1cccc2cncc(NC(=O)Cc3cccc(Cl)c3)c12

(A)
5.41
6.41
4.94
6.48

----------
Parameter 'readout' = IC50; parameter 'system' = SARS-CoV-2 Main Protease (SARS-CoV-2) (UniProt P0DTD1).
Numbers only, in µM.

molecule=O=C(Nc1cncc2ccccc12)c1ccnc2cc(Cl)c(Cl)cc12 testtarget="SARS-CoV-2 Main Protease (SARS-CoV-2) (UniProt P0DTD1)" assaymetric=IC50 unittext=µM numericreadout=28.1

I would be grateful if you could provide IC50 for each of the following entries.
1. C=CC(=O)N(c1ccc(C(F)(F)F)cc1)C(C(=O)Nc1c(C)cccc1CC)c1cccnc1 (stereo not given)
2. O=C(Cc1cc(Cl)cc(Nc2ccnc(Br)c2)c1)Nc1cncc2ccccc12

(A)
[97.8, 2.74]

(Q) Endpoint output: IC50 of `Cc1ccc(S(=O)(=O)N2CCN(C(=O)CCl)CC2)cc1` . Value?
(A) 21

Provenance of the data: the COVID Moonshot data (paper PMC7615835)
